B1: POU domain, class 3, transcription factor 3, residues 408 to 463; numbered along this chain, P20264 (parent)
chain: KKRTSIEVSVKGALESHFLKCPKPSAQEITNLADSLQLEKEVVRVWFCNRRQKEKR

Variants of: B1
Test: abundance fitness (aPCA) (normalised: wild type 0, dead -1); higher = more abundant; growth selection in yeast, the domain comes from the species named
Conditions: Homo sapiens
# reported abundance fitness; entries follow
Endpoint Name: abundance fitness

{"Construct Sequence": "KKRTSIEVSVKGALESHFLKCPKPSAQEITNLADSLQLEKEVVRVWFCNRRQGEKR", "Readout Number": -0.212}
{"Construct Sequence": "KKRTSIEVSVKGALESHFLKCPKPSFQEITNLADSLQLEKEVVRVWFCNRRQKEKR", "Readout Number": -0.297}
{"Construct Sequence": "KKRTSIEVSMKGALESHFLKCPKPSAQEITNLADSLQLEKEVVRVWFCNRRQKEKR", "Readout Number": -0.192}
{"Construct Sequence": "KKRTSIEVSVKGALESHFLKCPKPSAQEITNLADSLQLEKVVVRVWFCNRRQKEKR", "Readout Number": -0.884}
{"Construct Sequence": "KKRTSIEVSVKGALESHFLKGPKPSAQEITNLADSLQLEKEVVRVWFCNRRQKEKR", "Readout Number": -0.468}
{"Construct Sequence": "KKRTSIEVSAKGALESHFLKCPKPSAQEITNLADSLQLEKEVVRVWFCNRRQKEKR", "Readout Number": -0.005}
{"Construct Sequence": "KKRTSIEVSVKGALESHFLKCPKPSAQEITNSADSLQLEKEVVRVWFCNRRQKEKR", "Readout Number": -0.95}
{"Construct Sequence": "KKRTSIEVSVKGALESHFLKCPFPSAQEITNLADSLQLEKEVVRVWFCNRRQKEKR", "Readout Number": -0.034}
{"Construct Sequence": "KKRTSIEVSVKGALESHFLKCPKPSLQEITNLADSLQLEKEVVRVWFCNRRQKEKR", "Readout Number": -0.005}
{"Construct Sequence": "KKRTSIEVSVKGALESHFNKCPKPSAQEITNLADSLQLEKEVVRVWFCNRRQKEKR", "Readout Number": 0.014}
{"Construct Sequence": "KKRTSIEVSVKGALESHFLKCPKPSAQEITNLPDSLQLEKEVVRVWFCNRRQKEKR", "Readout Number": -0.909}
{"Construct Sequence": "KKRTSIEVSVKGALESHFLKCPKPSAQEITNLADALQLEKEVVRVWFCNRRQKEKR", "Readout Number": -0.019}
{"Construct Sequence": "KKRTSIEVSVKGALESHFVKCPKPSAQEITNLADSLQLEKEVVRVWFCNRRQKEKR", "Readout Number": -0.075}
{"Construct Sequence": "KKRTSIEVSVKGALEPHFLKCPKPSAQEITNLADSLQLEKEVVRVWFCNRRQKEKR", "Readout Number": -0.441}
{"Construct Sequence": "KFRTSIEVSVKGALESHFLKCPKPSAQEITNLADSLQLEKEVVRVWFCNRRQKEKR", "Readout Number": 0.056}
{"Construct Sequence": "KKRTSIEVSVKGALESHFLKCPKPSAQEITNLADSIQLEKEVVRVWFCNRRQKEKR", "Readout Number": -0.377}
{"Construct Sequence": "KKRTSIEVSVKGALESHFLKCPKPSAQEITNLADSLQLEKEVVRVWFCNRRQKEKE", "Readout Number": 0.093}
{"Construct Sequence": "KKRTSIEVSVKGALESHFLKCPKPSAQEETNLADSLQLEKEVVRVWFCNRRQKEKR", "Readout Number": -0.301}
{"Construct Sequence": "KKRTSIEFSVKGALESHFLKCPKPSAQEITNLADSLQLEKEVVRVWFCNRRQKEKR", "Readout Number": 0.04}
{"Construct Sequence": "KSRTSIEVSVKGALESHFLKCPKPSAQEITNLADSLQLEKEVVRVWFCNRRQKEKR", "Readout Number": -0.077}
{"Construct Sequence": "KKRTSIEVSVKGALESYFLKCPKPSAQEITNLADSLQLEKEVVRVWFCNRRQKEKR", "Readout Number": 0.041}
{"Construct Sequence": "KKRTSIEVSLKGALESHFLKCPKPSAQEITNLADSLQLEKEVVRVWFCNRRQKEKR", "Readout Number": -0.042}
{"Construct Sequence": "KKRTSIEVSVKGALLSHFLKCPKPSAQEITNLADSLQLEKEVVRVWFCNRRQKEKR", "Readout Number": -0.599}
{"Construct Sequence": "KKRTSIEVSVKGALESHFLKCPKPSAQEITNLADSLQLEKEVVRGWFCNRRQKEKR", "Readout Number": -0.058}
{"Construct Sequence": "KKRTSIEVSVKGALESHFLKCPKPSAQEITNWADSLQLEKEVVRVWFCNRRQKEKR", "Readout Number": -0.967}
{"Construct Sequence": "KKRTSIEVSVKGALESHFLKCPKPSAQEITNLADSLQLAKEVVRVWFCNRRQKEKR", "Readout Number": -0.153}
{"Construct Sequence": "KKRTSIEVSVKGALESHFLKCPKPSAQEITNLADSLQLEKEVVRVWFCNRRQMEKR", "Readout Number": -0.167}
